- TARGET_OR_SYSTEM: Mu-type opioid receptor (Rattus norvegicus, UniProt P33535)
- Sequence (P33535 whole entry): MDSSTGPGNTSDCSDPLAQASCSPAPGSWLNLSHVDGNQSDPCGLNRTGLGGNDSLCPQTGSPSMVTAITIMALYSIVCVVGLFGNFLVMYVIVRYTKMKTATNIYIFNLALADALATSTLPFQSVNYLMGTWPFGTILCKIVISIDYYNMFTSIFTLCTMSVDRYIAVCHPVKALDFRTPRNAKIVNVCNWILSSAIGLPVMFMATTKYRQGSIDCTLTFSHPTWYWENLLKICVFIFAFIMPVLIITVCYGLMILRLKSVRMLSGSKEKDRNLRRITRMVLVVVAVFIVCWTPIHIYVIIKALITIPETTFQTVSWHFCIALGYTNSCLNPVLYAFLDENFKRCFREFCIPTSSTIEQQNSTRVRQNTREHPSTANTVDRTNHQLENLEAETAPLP
Exam item: assign Y to entries whose IC50 is below 3 µM and N to entries at or above 3 µM. Note that a value of exactly 3 µM receives N.

Solved entries (count: 4):
CC(C)C(NC(=O)[C@H]1NC(=O)[C@H](CO)NC(=O)C(Cc2ccccc2)NC(=O)[C@H](NC(=O)[C@@H](N)Cc2ccc(O)cc2)C(C)(C)SSC1(C)C)C(=O)NCC(N)=O (single isomer, unassigned)	N
CC(C)[C@H](NC(=O)[C@H]1NC(=O)[C@H](CC(=O)O)NC(=O)[C@H](Cc2ccccc2)NC(=O)[C@H](NC(=O)[C@@H](N)Cc2ccc(O)cc2)C(C)(C)SSC1(C)C)C(=O)NCC(N)=O	N
CC(C)[C@H](NC(=O)[C@H]1NC(=O)[C@H](CC(=O)O)NC(=O)[C@H](Cc2ccccc2)NC(=O)[C@H](NC(=O)[C@@H](N)Cc2ccc(O)cc2)CSSC1(C)C)C(=O)NCC(N)=O	N
CCCC[C@H](NC(=O)[C@H]1NC(=O)[C@H](CC(=O)O)NC(=O)C(Cc2ccccc2)NC(=O)[C@H](NC(=O)[C@@H](N)Cc2ccc(O)cc2)C(C)(C)SSC1(C)C)C(=O)NCC(N)=O (single isomer, unassigned)	N

Field: next molecule
Task item: Is 3 µM strictly greater than the molecule's reported IC50? molecule: CSCCC(NC(=O)[C@H](CC(C)C)NC(=O)[C@H](Cc1c[nH]cn1)NC(=O)[C@H](Cc1ccccc1)NC(=O)C(CCSC)NC(=O)[C@@H](N)Cc1ccc(O)cc1)C(=O)N[C@@H](CC(=O)O)C(N)=O (stereo in doubt)
Reply: Y

Sourced from ChEMBL document CHEMBL1127486
